System: ragweed (common ragweed, Ambrosia elatior)
Experiment: Test A preemergence
Type: in vivo
Details: Ambrosia artemisiifolia, pre-emergence, 240 h, 125 g ai/ha, preemergence; 0 to 100 scale where 0 is no effect and 100 is complete control; approx. 10 d; read-out: Ragweed plant response rating
measured-property: pest or weed control at 125 g/ha (%)

- molecule: "CN1C[C@H](c2ccc(C(F)(F)F)nc2)[C@@](C)(C(=O)Nc2ccc(F)c(F)c2F)C1=O [Compound 1110]"
  endpoint-unit: "%"
  measured-value: 40
- molecule: "CCc1cccc([C@H]2CCNC(=O)[C@@H]2C(=O)Nc2cccc(F)c2F)c1 [Compound 1058]"
  endpoint-unit: "%"
  measured-value: 0
- molecule: "CN1C[C@H](c2cc(F)cc(F)c2)[C@@H](C(=O)Nc2ncccc2Cl)C1=O [Compound 1097]"
  endpoint-unit: "%"
  measured-value: 0
- molecule: "CN1C[C@H](c2ccc3ncccc3c2)[C@@H](C(=O)Nc2cccc(F)c2F)C1=O [Compound 1167]"
  endpoint-unit: "%"
  measured-value: 0
- molecule: "CN1C[C@H](c2cc(C(F)F)cs2)[C@@H](C(=O)Nc2cccc(C#N)c2F)C1=O [Compound 1093]"
  endpoint-unit: "%"
  measured-value: 20
- molecule: "CON1CC[C@H](c2cccc(C(F)(F)F)c2)[C@@H](C(=O)Nc2cccc(Cl)c2F)C1=O [Compound 1171]"
  endpoint-unit: "%"
  measured-value: 0
- molecule: "CC(C)Oc1ccc([C@H]2CNC(=O)[C@@H]2C(=O)Nc2cccc(F)c2F)cc1 [Compound 1136]"
  endpoint-unit: "%"
  measured-value: 0
- molecule: "CN1C[C@H](c2cc(C(F)F)cs2)[C@@H](C(=O)Nc2cccc(F)c2C#N)C1=O [Compound 1092]"
  endpoint-unit: "%"
  measured-value: 40
- molecule: "O=C1NC[C@H](c2ccc(F)c(OC(F)(F)C(F)F)c2)[C@H]1C(=O)Nc1ccc(F)cc1F (racemic) [Compound 1154]"
  endpoint-unit: "%"
  measured-value: 20
- molecule: "O=C1NC[C@H](c2ccc(C(F)(F)F)cn2)[C@H]1C(=O)Nc1ccc(F)c(F)c1F [Compound 1105]"
  endpoint-unit: "%"
  measured-value: 20
- molecule: "O=C1NC[C@H](c2ccc(F)c(OC(F)(F)C(F)F)c2)[C@H]1C(=O)Nc1ccccc1F [Compound 1133]"
  endpoint-unit: "%"
  measured-value: 40
- molecule: "CN1C[C@H](c2ccc(Cl)cc2)[C@@H](C(=O)Nc2ccc(F)c(F)c2F)C1=O [Compound 1144]"
  endpoint-unit: "%"
  measured-value: 20
- molecule: "CC(C)Oc1ccc([C@H]2CNC(=O)[C@@H]2C(=O)Nc2ccccc2F)cc1 [Compound 1135]"
  endpoint-unit: "%"
  measured-value: 0
- molecule: "CC(C)Oc1ccc([C@H]2CNC(=O)[C@@H]2C(=O)Nc2ccc(F)cc2F)cc1 [Compound 1137]"
  endpoint-unit: "%"
  measured-value: 0
- molecule: "CN1CC(c2cccc(O)c2)C(C(=O)Nc2cccc(F)c2F)C1=O (stereo not drawn) [Compound 1130]"
  endpoint-unit: "%"
  measured-value: 0
